# measured target: HLA-DR molecule DRB1*0401 (human)
# test method notes: competition vs 125I probe, purified HLA
quantity measured: IC50 (µM)
Give the value in µM but do not write µM after it.

Sample records with IC50:
binder="GLRSLTTLTRALGAQ [EPO 101 analog GLRSLTTLTRALGAQ]" reported=0.394
binder="GLRSLTTLNRALGAQ [EPO 101 analog GLRSLTTLNRALGAQ]" reported=0.028

Here's the next entry for you.
Read off the recorded IC50 for GLRSLTTRLRALGAQ [EPO 101 analog GLRSLTTRLRALGAQ]
0.211
